Test: The drug is tested on Anaerotruncus colihominis strain: DSM17241 for biotransformation. The drug concentrations were measured before and after a 12-h incubation by liquid-chromatography-coupled mass spectrometry (LC–MS)
Conditions: 2 µM
measured_attribute: Bacterial Biotransformation

Q: Quick check: Bacterial Biotransformation of CNCC[C@H](Oc1cccc2ccccc12)c1cccs1 [DULOXETINE] ?
Ans: Compound NOT metabolized

Q: Try the compound CC(C)[C@H]1CC[C@H](C(=O)N[C@H](Cc2ccccc2)C(=O)O)CC1 [NATEGLINIDE]
Ans: Compound NOT metabolized

Q: Try the compound CN1CCN2c3ccccc3Cc3ccccc3C2C1 (centres undefined) [MIANSERIN]
Ans: Compound NOT metabolized

###

Experiment: The drug is tested on Bacteroides uniformis strain: ATCC8492 for biotransformation. The drug concentrations were measured before and after a 12-h incubation by liquid-chromatography-coupled mass spectrometry (LC–MS)
Settings: 2 µM
measured_attribute: Bacterial Biotransformation

Q: Quick check: Bacterial Biotransformation of CC12CC3CC(C)(C1)CC(N)(C3)C2 [MEMANTINE] ?
Ans: Compound NOT metabolized

Q: Try the compound CC(C)(C#N)c1cc(Cn2cncn2)cc(C(C)(C)C#N)c1 [ANASTROZOLE]
Ans: Compound metabolized

Q: Try the compound CC#CCn1c(N2CCC[C@@H](N)C2)nc2c1c(=O)n(Cc1nc(C)c3ccccc3n1)c(=O)n2C [LINAGLIPTIN]
Ans: Compound metabolized

Q: Try the compound O=C1N=C([O-])NC1(c1ccccc1)c1ccccc1.[Na+] [PHENYTOIN SODIUM]
Ans: Compound metabolized

Q: Try the compound CC1=C(CC(=O)O)c2cc(F)ccc2/C1=C\c1ccc([S+](C)[O-])cc1 (centres undefined)
Ans: Compound NOT metabolized

Q: Try the compound C[C@]12CCC(=O)C=C1[C@@H]1C[C@@H]1[C@H]1[C@@H]3[C@@H]4C[C@@H]4[C@@]4(CCC(=O)O4)[C@@]3(C)CC[C@@H]12 [DROSPIRENONE]
Ans: Compound metabolized

Q: Try the compound OCCOCCN1CCN(C2=Nc3ccccc3Sc3ccccc32)CC1 [QUETIAPINE]
Ans: Compound NOT metabolized

Q: Try the compound CNC(=C[N+](=O)[O-])NCCSCc1ccc(CN(C)C)o1 [RANITIDINE]
Ans: Compound NOT metabolized

More entries:
Q: Quick check: Bacterial Biotransformation of O=P1(N(CCCl)CCCl)NCCCO1 (centres undefined) [CYCLOPHOSPHAMIDE ANHYDROUS] ?
Ans: Compound NOT metabolized

###

Conditions: bacteroides stercoris, 12 h, 2 µM
Description: The drug is tested on Bacteroides stercoris strain: ATCC43183 for biotransformation. The drug concentrations were measured before and after a 12-h incubation by liquid-chromatography-coupled mass spectrometry (LC–MS)
measured_attribute: Bacterial Biotransformation

Consider the reported Bacterial Biotransformation for these compounds:
Q: Quick check: Bacterial Biotransformation of CC(C)(C#N)c1cc(Cn2cncn2)cc(C(C)(C)C#N)c1 ?
Ans: Compound metabolized

Q: Try the compound CN1CCN(C2=Nc3cc(Cl)ccc3Nc3ccccc32)CC1
Ans: Compound NOT metabolized

Q: Try the compound CCN(C)C(=O)Oc1cccc([C@H](C)N(C)C)c1.O=C(O)C(O)C(O)C(=O)O [RIVASTIGMINE TARTRATE]
Ans: Compound NOT metabolized

Q: Try the compound O=C1CC2(CCCC2)CC(=O)N1CCCCN1CCN(c2ncccn2)CC1
Ans: Compound NOT metabolized

Q: Try the compound c1ccc2[nH]c(-c3cscn3)nc2c1
Ans: Compound NOT metabolized

Q: Try the compound O=C(NCc1ccccc1)OCCO [BURAMATE]
Ans: Compound NOT metabolized

Q: Try the compound O=C1CN2Cc3c(ccc(Cl)c3Cl)N=C2N1 [ANAGRELIDE]
Ans: Compound NOT metabolized

Q: Try the compound Cc1ccnc2c1NC(=O)c1cccnc1N2C1CC1
Ans: Compound NOT metabolized

More entries:
Q: Quick check: Bacterial Biotransformation of C[C@@H]1C[C@H]2[C@@H]3CCC4=CC(=O)C=C[C@]4(C)[C@@]3(F)[C@@H](O)C[C@]2(C)[C@@]1(O)C(=O)CO ?
Ans: Compound metabolized

Q: Try the compound CCc1cccc2c3c([nH]c12)C(CC)(CC(=O)O)OCC3 (stereo not drawn)
Ans: Compound NOT metabolized

Q: Try the compound C#C[C@]1(OC(C)=O)CC[C@H]2[C@@H]3CCC4=CC(=O)CC[C@@H]4[C@H]3CC[C@@]21C [NORETHINDRONE ACETATE]
Ans: Compound metabolized

Q: Try the compound CC(C)N(CCC(C(N)=O)(c1ccccc1)c1ccccn1)C(C)C.O=P(O)(O)O (stereo not drawn) [DISOPYRAMIDE PHOSPHATE]
Ans: Compound NOT metabolized

Q: Try the compound COc1ccccc1N1CCN(CC(O)COc2cccc3ccccc23)CC1 (stereo not drawn)
Ans: Compound NOT metabolized

Q: Try the compound COc1ccccc1OCCNCC(O)COc1cccc2[nH]c3ccccc3c12 (stereo not drawn)
Ans: Compound metabolized

Q: Try the compound COc1c(C)c2c(c(O)c1C/C=C(\C)CCC(=O)OCCN1CCOCC1)C(=O)OC2 [MYCOPHENOLATE MOFETIL]
Ans: Compound metabolized

Q: Try the compound COc1ccccc1OCC(O)COC(N)=O (stereo not drawn)
Ans: Compound NOT metabolized

Q: Try the compound COc1cc2nc(N3CCN(C(=O)C4COc5ccccc5O4)CC3)nc(N)c2cc1OC.CS(=O)(=O)O (stereo not drawn) [DOXAZOSIN MESYLATE]
Ans: Compound NOT metabolized

Q: Try the compound COc1ccc2c(c1)c(CC(=O)O)c(C)n2C(=O)c1ccc(Cl)cc1
Ans: Compound metabolized
